TARGET OR TEST SYSTEM: T1, soluble recombinant human uPAR/His6 (R&D Systems, Cat. # 807-UK-100) (human, UniProt Q03405 23-303)
T1 construct: range 1-303; Bought protein; also called soluble uPAR; hu-uPAR
T1 sequence (Q03405 other isoform, or with tags, fused parts or gaps limits assumed, form in doubt): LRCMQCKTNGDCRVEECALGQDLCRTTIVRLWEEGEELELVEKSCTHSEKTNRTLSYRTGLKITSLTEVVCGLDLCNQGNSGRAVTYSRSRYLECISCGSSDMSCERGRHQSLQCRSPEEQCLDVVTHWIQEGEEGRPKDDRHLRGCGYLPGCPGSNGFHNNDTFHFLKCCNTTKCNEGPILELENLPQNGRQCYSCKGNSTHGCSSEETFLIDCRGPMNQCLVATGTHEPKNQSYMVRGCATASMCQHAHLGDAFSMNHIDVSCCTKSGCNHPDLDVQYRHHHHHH
EXPERIMENTAL PROTOCOL: limited antigen ELISA, uPAR coat 80 ng/mL, sample 1:25
ATTRIBUTE MEASURED: LA at 80 ng/ml

BINDER | LA at 80 ng/ml
fully human monoclonal antibody 2.6.1 (ATCC Accession Number PTA-7475) (antibody, V domains shown, also called mAb 2.6.1) VH: EVQLVESGGGLIQPGGSLRLSCAASGFTVITNYMNWVRQAPGKGLEWVSIIYTGGSTSYADSVKGRFTVSRDNSKNTLYLHMNSLRVEDTAVYYCAREIAVAGYYGMDVWGQGTTVTVS VL: DIQMTQSPSSLSASVGDRVTITCRASQGIRNDLGWYQQKPGKAPKRLIYAASSLQSGVPSRFSGSGSGTEFTLTISSLQPEDFATYYCLQHNSYPLTFGGGTRVEIK | 3.58

// next item, LA at 80 ng/ml requested
Tell me the measured LA at 80 ng/ml of anti-uPAR monoclonal antibody 1.41.1 (antibody, V domains shown) VH: QVQLVESGGGVVQPGRSLRLSCAAPGFTFSSYGMHWVRQAPGKGLEWVAVIWYDGSQKYYADSVKGRFTISRDNSKNTLYLQMNSLRAEDTAVYYCARGMTYYYYYGMDVWGQGTTVTVSS VL: EIVMTQSPAILSVSPGERATLSCRASQSVSSKLDWYQQKPGQAPRLLIYGASTRATGIPARFSGSGSGTEFTLTISSLQSEDFAVYYCQQYNNWPRTFGQGTKVEIK , please.
1.48

These data points were gathered from patent US20080152587A1.
